Molecular target: angiotensin-converting enzyme isolated from lungs of adult male rabbits (Oryctolagus cuniculus, UniProt P12822)
Construct: angiotensin-converting enzyme isolated from lungs of adult male rabbits
Sequence (P12822 34-1310): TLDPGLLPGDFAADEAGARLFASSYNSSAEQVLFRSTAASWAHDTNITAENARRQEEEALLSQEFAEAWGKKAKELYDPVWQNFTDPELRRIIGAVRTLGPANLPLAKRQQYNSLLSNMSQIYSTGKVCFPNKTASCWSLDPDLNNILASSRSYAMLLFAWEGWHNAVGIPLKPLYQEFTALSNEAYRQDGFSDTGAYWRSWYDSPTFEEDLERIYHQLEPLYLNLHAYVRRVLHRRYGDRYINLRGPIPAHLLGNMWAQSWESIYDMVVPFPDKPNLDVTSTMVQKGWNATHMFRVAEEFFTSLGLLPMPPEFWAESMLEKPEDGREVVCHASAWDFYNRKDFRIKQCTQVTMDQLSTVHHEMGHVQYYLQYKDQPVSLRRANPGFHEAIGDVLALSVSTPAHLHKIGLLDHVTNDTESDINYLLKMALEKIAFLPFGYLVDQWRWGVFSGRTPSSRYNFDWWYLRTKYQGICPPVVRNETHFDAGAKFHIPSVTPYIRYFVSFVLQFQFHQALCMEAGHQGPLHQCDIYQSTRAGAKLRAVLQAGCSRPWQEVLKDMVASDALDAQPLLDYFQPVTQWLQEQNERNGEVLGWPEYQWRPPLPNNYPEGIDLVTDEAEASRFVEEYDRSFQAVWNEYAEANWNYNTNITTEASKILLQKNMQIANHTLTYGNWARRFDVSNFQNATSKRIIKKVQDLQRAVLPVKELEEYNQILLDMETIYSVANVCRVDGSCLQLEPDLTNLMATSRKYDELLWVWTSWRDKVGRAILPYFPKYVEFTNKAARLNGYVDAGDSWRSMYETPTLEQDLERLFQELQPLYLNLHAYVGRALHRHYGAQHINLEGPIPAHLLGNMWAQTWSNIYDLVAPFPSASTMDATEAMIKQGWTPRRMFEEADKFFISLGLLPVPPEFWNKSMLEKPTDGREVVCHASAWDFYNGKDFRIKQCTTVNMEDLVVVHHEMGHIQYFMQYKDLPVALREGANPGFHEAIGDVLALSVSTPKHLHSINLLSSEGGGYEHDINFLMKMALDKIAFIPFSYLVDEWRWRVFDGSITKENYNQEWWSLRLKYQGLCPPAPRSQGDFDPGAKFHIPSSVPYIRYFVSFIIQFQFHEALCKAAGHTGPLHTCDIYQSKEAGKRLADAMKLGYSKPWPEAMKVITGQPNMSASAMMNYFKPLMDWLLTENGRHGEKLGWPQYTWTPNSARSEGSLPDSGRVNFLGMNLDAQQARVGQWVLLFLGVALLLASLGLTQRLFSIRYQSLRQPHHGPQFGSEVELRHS
Experiment: in vitro inhibition of the angiotensin-converting enzyme (hippuryl-histidyl-leucine substrate)
Settings: rabbit lung enzyme, 37° for 30 minutes
pIC50: −log10 of the molar value.

- smiles_str: "O=C(N[C@H](CCC(=O)N1c2ccccc2C[C@H]1C(=O)O)C(=O)O)OCc1ccccc1"
  pIC50: "~8.15"
